- targetOrTestSystem: T1, APBA1_2, Q02410
- T1 sequence (Q02410 742-832, limits assumed, looked up): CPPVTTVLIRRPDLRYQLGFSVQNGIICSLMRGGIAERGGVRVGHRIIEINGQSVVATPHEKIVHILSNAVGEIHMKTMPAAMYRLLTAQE
- testSummary: holdup assay
- Set-up: key: below the threshold = too weak to quantify, mostly under pKd 3.1 to 4
- experimentalConditions: plain residues with an end cap or a label only (N-terminal biotin on a linker: ado-ado)
assayReadout: pKd

Recorded results for 5 binders are shown here.
Which measured pKd value corresponds to SNAGNTATKA [NOSTRIN, Q8IVI9] ?
below the threshold

Which measured pKd value corresponds to EVNETDDTKM [KCNJ1, P48048] ?
below the threshold

Which measured pKd value corresponds to SAAKVLTSMC [GHRHR, Q02643] ?
below the threshold

Which measured pKd value corresponds to QSARLWETSI [ADAM22, Q9P0K1] ?
below the threshold

Which measured pKd value corresponds to TACCHSETVV [TGFA, P01135] ?
3.87

Others:
Which measured pKd value corresponds to AKPSRISTVV [IQSEC2, Q5JU85] ?
3.49
